All values here come from patent US20180201592A1.

System: A. terreus 49
protocol: Minimum inhibitory concentration, YAG medium
Assay type: cell-based, Aspergillus terreus
testParameters: banded MIC grade
measurementType: MIC grade, A. TERREUS 49, YAG media

Return reported MIC grade, A. TERREUS 49, YAG media; argument: CCCc1ccc(C2=NN=C(N)SC2)cc1
3 (3: 0.2-1 mg/L)

Return reported MIC grade, A. TERREUS 49, YAG media; argument: CCCCOC1CCC2=NN=C(N)SC2C1 (stereo not drawn)
2 (2: 1-5 mg/L)

Return reported MIC grade, A. TERREUS 49, YAG media; argument: CCc1cccc(COCCCCC2=NN=C(N)SC2)c1
4 (4: <0.2 mg/L)

Return reported MIC grade, A. TERREUS 49, YAG media; argument: NC1=NN=C(c2ccccn2)CS1
1 (1: ≥5 mg/L)

Return reported MIC grade, A. TERREUS 49, YAG media; argument: NC1=NN=C(CCCCCN2C(=O)c3ccccc3C2=O)CS1
4 (4: <0.2 mg/L)

Return reported MIC grade, A. TERREUS 49, YAG media; argument: NC1=NN=C(CCCCCCCOc2ccccc2)CS1
4 (4: <0.2 mg/L)
